FYI, the data here is from patent US11649255B2.

- TGT: recombinant human HPK1 (Homo sapiens (Human), UniProt Q92918)
- Sequence (Q92918 whole entry): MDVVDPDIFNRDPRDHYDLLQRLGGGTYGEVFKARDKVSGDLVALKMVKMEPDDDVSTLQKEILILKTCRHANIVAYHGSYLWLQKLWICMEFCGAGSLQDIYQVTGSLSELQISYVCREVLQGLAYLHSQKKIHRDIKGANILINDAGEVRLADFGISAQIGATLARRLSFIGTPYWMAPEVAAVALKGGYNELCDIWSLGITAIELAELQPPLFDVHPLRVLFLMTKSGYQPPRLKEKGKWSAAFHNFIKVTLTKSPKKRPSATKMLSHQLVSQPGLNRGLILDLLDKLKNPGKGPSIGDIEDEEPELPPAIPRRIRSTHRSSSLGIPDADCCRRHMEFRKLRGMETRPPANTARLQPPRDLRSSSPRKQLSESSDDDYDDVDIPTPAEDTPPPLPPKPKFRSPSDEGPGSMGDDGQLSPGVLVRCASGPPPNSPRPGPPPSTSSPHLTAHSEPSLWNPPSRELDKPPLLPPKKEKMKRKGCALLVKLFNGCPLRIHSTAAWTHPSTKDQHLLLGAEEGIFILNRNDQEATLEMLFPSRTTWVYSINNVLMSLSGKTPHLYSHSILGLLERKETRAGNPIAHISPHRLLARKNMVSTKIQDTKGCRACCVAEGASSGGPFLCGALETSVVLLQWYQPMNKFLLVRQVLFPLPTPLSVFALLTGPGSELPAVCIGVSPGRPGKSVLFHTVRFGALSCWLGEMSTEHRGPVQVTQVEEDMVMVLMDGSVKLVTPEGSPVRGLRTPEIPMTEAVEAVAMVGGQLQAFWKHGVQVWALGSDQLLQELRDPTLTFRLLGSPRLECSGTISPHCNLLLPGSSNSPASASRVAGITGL
- MEASUREMENT DESCRIPTION: HPK1 kinase assay (ADP-Glo)
- Type: biochemical
- DETAILS: 25 μM ATP, MBP substrate
pIC50: −log10 of the molar value.
ENDPOINT: pIC50

# COMPOUND, RESULT
records = [
    ("CCNc1c(F)c(CC)c(-c2ccn3nc(NC(=O)[C@@H]4C[C@@H]4F)cc3c2)c2cn[nH]c12", "> 7.00"),
    ("CN(C)C(=O)c1ccn(-c2c(F)c(Cl)c(-c3ccc4nc(NC(=O)[C@@H]5C[C@@H]5F)cn4c3)c3cn[nH]c23)c1", "> 7.00"),
    ("CCNc1c(F)c(Cl)c(-c2ccn3nc(NC(=O)[C@@H]4C[C@@H]4F)cc3c2)c2cn[nH]c12", "> 7.00"),
    ("Cc1c(F)c(C(F)(F)F)c2[nH]ncc2c1-c1ccn2nc(NC(=O)[C@@H]3C[C@@H]3F)cc2c1", "> 7.00"),
    ("O=C(Nc1cc2cc(-c3c(CO)ccc4[nH]ncc34)ccn2n1)[C@@H]1C[C@@H]1F", "< 6.00"),
    ("Cc1ccc2[nH]ncc2c1-c1ccc2nc(NC(=O)[C@@H]3C[C@@H]3F)sc2c1", "6.30 to 7.00"),
    ("CC(=O)N(C)c1c(F)c(C)c(-c2ccc3nc(NC(=O)[C@@H]4C[C@@H]4F)sc3c2)c2cn[nH]c12", "> 7.00"),
    ("Cc1c(F)c(N(C)CCO)c2[nH]ncc2c1-c1ccc2nc(NC(=O)[C@@H]3C[C@@H]3F)sc2n1", "> 7.00"),
    ("N#Cc1c(F)cc2[nH]ncc2c1-c1ccc2nc(NC(=O)[C@@H]3C[C@@H]3F)sc2n1", "6.30 to 7.00"),
    ("Cc1c(F)cc2[nH]ncc2c1-c1ccc2nc(NC(=O)[C@@H]3C[C@@H]3F)sc2c1", "> 7.00"),
    ("CN(C)C(=O)c1c(F)cc2[nH]ncc2c1-c1ccn2nc(NC(=O)[C@@H]3C[C@@H]3F)cc2c1", "< 6.00"),
    ("CCNC(=O)C(C)c1c(F)c(Cl)c(-c2ccc3nc(NC(=O)[C@@H]4C[C@@H]4F)cn3c2)c2cn[nH]c12 (stereo partly drawn)", "> 7.00"),
    ("O=C(Nc1nc2ccc(-c3c(Cl)c(F)c(C(F)F)c4[nH]ncc34)nc2s1)[C@@H]1C[C@@H]1F", "> 7.00"),
    ("Nc1c(F)c(Cl)c(-c2ccn3nc(NC(=O)[C@@H]4C[C@@H]4F)cc3c2)c2cn[nH]c12", "> 7.00"),
    ("O=C(Nc1cn2cc(-c3c(Cl)c(F)c(SCCO)c4[nH]ncc34)ccc2n1)[C@@H]1C[C@@H]1F", "> 7.00"),
]
